target: human mAChR M1 (Homo sapiens, UniProt P11229); construct: host or cells: CHO-K1; assay: mAChR M1 cell-based functional assay (calcium mobilization, Fluo-4, FDSS); settings: CHO-K1 cells stably expressing hM1; EC20 acetylcholine response; read-out: Human M1 Emax
In this section we review reported Emax values for a set of compounds.
Value kind: Emax (%)

Compound: Cn1ccc(-c2ccc(Cc3cc(C(=O)NC4CCOC(C)(C)C4)nc4sccc34)cc2)n1 (stereo not shown)
Value kind: Emax
Reading: 36.4
--
Compound: Cn1cc(-c2ccc(Cc3cc(C(=O)NC4CCOCC4(C)C)nc4sccc34)cn2)cn1 (stereo not shown)
Value kind: Emax
Reading: 55.7
--
Compound: Cn1cc(-c2ccc(Cc3cc(C(=O)NCC4CCOC4)nc4sccc34)cn2)cn1 (stereo not shown)
Value kind: Emax
Reading: 57.5
--
Compound: Cn1cc(-c2ccc(Cc3cc(C(=O)N[C@H]4CCCC[C@@H]4O)nc4sccc34)cn2)cn1
Value kind: Emax
Reading: 60.5

---

Some compounds, each annotated with its measured EC50.
target: human mAChR M1 (Homo sapiens, UniProt P11229); construct: host or cells: CHO-K1; assay: mAChR M1 cell-based functional assay (calcium mobilization, Fluo-4, FDSS); settings: CHO-K1 cells stably expressing hM1; positive allosteric modulator activity as increase in the EC20 acetylcholine response

Compound: Cn1cc(-c2ccc(Cc3cc(C(=O)N[C@H]4CCCC[C@@H]4O)nc4c3ccn4C)cn2)cn1
EC50 [nM]: 30
--
Compound: CCn1ccc2c(Cc3ccc(-n4cccn4)cc3)cc(C(=O)NC3CCOCC3)nc21
EC50 [nM]: 280
--
Compound: Cn1ccc2c(Cc3ccc(-c4nccs4)cc3)cc(C(=O)N[C@H]3CCOC[C@@H]3O)nc21
EC50 [nM]: 30
--
Compound: Cn1ccc(-c2ccc(Cc3cc(C(=O)NC4CC5(COC5)C4)nc4sccc34)cn2)n1
EC50 [nM]: 150
--
Compound: Cn1ccc2c(Cc3ccc(-c4nccs4)cc3)cc(C(=O)NC3CCOCC3(C)C)nc21 (stereo not shown)
EC50 [nM]: 1390
--
Compound: CC1CC(NC(=O)c2cc(Cc3ccc(-c4ccn(C)n4)cc3)c3ccsc3n2)CC(C)O1 (stereo not shown)
EC50 [nM]: 520
--
Compound: Cn1ccc(-c2ccc(Cc3cc(C(=O)NC4CCOCC4(C)C)nc4c3ccn4C)cn2)n1 (stereo not shown)
EC50 [nM]: 190
--
Compound: Cn1ccc2c(Cc3ccc(-c4cscn4)cc3)cc(C(=O)NC3CCOC(C)(C)C3)nc21 (stereo not shown)
EC50 [nM]: 670
--
Compound: Cn1ccc(-c2ccc(Cc3cc(C(=O)NC4CCOCC4(C)C)nc4sccc34)cc2)n1 (stereo not shown)
EC50 [nM]: 1180
--
Compound: Cn1ncc2c(Cc3ccc(-n4cccn4)cc3)cc(C(=O)NC3CC4(COC4)C3)nc21
EC50 [nM]: 1730
--
Compound: Cn1ccc2c(Cc3ccc(-c4cscn4)cc3)cc(C(=O)N[C@H]3CCCC[C@@H]3O)nc21
EC50 [nM]: 40
--
Compound: Cn1cc(-c2ccc(Cc3cc(C(=O)NCC4CCOCC4)nc4sccc34)cn2)cn1
EC50 [nM]: 60
--
Compound: O=C(NC1CC(F)C1)c1cc(Cc2ccc(-n3cccn3)cc2)c2ccsc2n1 (stereo not shown)
EC50 [nM]: 2090
--
Compound: Cc1nc(-c2ccc(Cc3cc(C(=O)N[C@H]4CCOC4)nc4sccc34)cc2)co1
EC50 [nM]: 620
--
Compound: O=C(NC1CC(F)(F)C1)c1cc(Cc2ccc(-n3cccn3)cc2)c2ccsc2n1
EC50 [nM]: 1770
--
Compound: Cn1cc(-c2ccc(Cc3cc(C(=O)NC4CCOC(C)(C)C4)nc4c3ccn4C)cn2)cn1 (stereo not shown)
EC50 [nM]: 180

---

Biological target: human mAChR M1 (Homo sapiens)
Construct: host or cells: CHO-K1
Sequence (P11229 1-460): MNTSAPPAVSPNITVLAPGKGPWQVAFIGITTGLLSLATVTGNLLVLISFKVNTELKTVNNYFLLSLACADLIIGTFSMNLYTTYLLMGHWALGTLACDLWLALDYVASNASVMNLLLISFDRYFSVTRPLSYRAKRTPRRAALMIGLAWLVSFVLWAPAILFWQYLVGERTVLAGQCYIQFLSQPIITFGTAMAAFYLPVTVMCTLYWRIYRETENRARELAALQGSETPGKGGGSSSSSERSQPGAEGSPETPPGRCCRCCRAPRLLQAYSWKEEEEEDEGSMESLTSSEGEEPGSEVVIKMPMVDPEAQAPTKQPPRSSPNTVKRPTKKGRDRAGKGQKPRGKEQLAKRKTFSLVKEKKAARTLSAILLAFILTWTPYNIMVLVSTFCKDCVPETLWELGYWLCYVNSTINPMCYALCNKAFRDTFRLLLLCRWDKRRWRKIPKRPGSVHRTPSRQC
Test: mAChR M1 cell-based functional assay (calcium mobilization, Fluo-4, FDSS)
Conditions: CHO-K1 cells stably expressing hM1; EC20 acetylcholine response; read-out: Human M1 Emax
Listed next: entries and their corresponding Emax.

Molecule: COCC(C)NC(=O)c1cc(Cc2ccc(-n3cccn3)cc2)c2ccsc2n1 (centres unmarked)
Result unit: %
Emax: 62

Molecule: Cn1ccc(-c2ccc(Cc3cc(C(=O)NC4(C)COC4)nc4c3ccn4C)cn2)n1
Result unit: %
Emax: 45.5

Molecule: Cn1ccc(-c2ccc(Cc3cc(C(=O)NCC4CCOCC4)nc4c3ccn4C)cc2)n1
Result unit: %
Emax: 49.6

Molecule: Cn1cc(-c2ccc(Cc3cc(C(=O)N[C@H]4CC[C@@H]4O)nc4c3ccn4C)cn2)cn1
Result unit: %
Emax: 86.2

Molecule: Cn1ccc2c(Cc3ccc(-c4cscn4)cc3)cc(C(=O)N[C@H]3CCOC[C@@H]3O)nc21
Result unit: %
Emax: 59.3

Molecule: Cn1ccc(-c2ccc(Cc3cc(C(=O)NC4COC4)nc4c3ccn4C)cc2)n1
Result unit: %
Emax: 56.1

Molecule: Cn1cc(-c2ccc(Cc3cc(C(=O)NC4CCOCC4)nc4c3ccn4C)cn2)cn1
Result unit: %
Emax: 83.8

Molecule: Cn1ccc(-c2ccc(Cc3cc(C(=O)N[C@H]4CCOC[C@@H]4O)nc4sccc34)cc2)n1
Result unit: %
Emax: 41.2

---

target: human mAChR M1 (Homo sapiens); construct: host or cells: CHO-K1; test: mAChR M1 cell-based functional assay (calcium mobilization, Fluo-4, FDSS); conditions: CHO-K1 cells stably expressing hM1; EC20 acetylcholine response; read-out: Human M1 Emax
Quick rule for you: Emax at 70% or higher means yes (1), lower means no (0).

Molecule: Cn1ccc(-c2ccc(Cc3cc(C(=O)N[C@H]4CCCC[C@@H]4O)nc4sccc34)cc2)n1
Class name: no (0)
--
Molecule: Cc1nc(-c2ccc(Cc3cc(C(=O)N[C@H]4CCC[C@@H]4O)nc4c3ccn4C)cc2)co1
Class name: yes (1)
--
Molecule: COCCNC(=O)c1cc(Cc2ccc(-n3cccn3)cc2)c2ccsc2n1
Class name: no (0)
--
Molecule: Cc1nc(-c2ccc(Cc3cc(C(=O)NC4CC(F)C4)nc4sccc34)cc2)co1 (stereo not shown)
Class name: no (0)
--
Molecule: CCn1ccc2c(Cc3ccc(-n4cccn4)cc3)cc(C(=O)NC3CCOCC3)nc21
Class name: yes (1)
--
Molecule: Cn1ccc2c(Cc3ccc(-c4cscn4)cc3)cc(C(=O)NC3CCOC(C)(C)C3)nc21 (stereo not shown)
Class name: yes (1)
--
Molecule: Cn1ccc2c(Cc3ccc(-n4cccn4)cc3)cc(C(=O)N[C@H]3CCOC[C@@H]3O)nc21
Class name: no (0)
--
Molecule: Cn1cc(-c2ccc(Cc3cc(C(=O)NCC4CCOCC4)nc4sccc34)cn2)cn1
Class name: no (0)
--
Molecule: Cn1ccc(-c2ccc(Cc3cc(C(=O)NC4CC5(COC5)C4)nc4c3ccn4C)cc2)n1
Class name: yes (1)
--
Molecule: Cn1ccc2c(Cc3ccc(-c4cscn4)cc3)cc(C(=O)N[C@H]3CCCC[C@@H]3O)nc21
Class name: no (0)
--
Molecule: Cn1ccc2c(Cc3ccc(-c4nccs4)cc3)cc(C(=O)N[C@H]3CC[C@@H]3O)nc21
Class name: no (0)
--
Molecule: Cn1ccc2c(Cc3ccc(-c4nccs4)cc3)cc(C(=O)N[C@H]3CCC[C@@H]3O)nc21
Class name: no (0)
--
Molecule: Cn1ccc(-c2ccc(Cc3cc(C(=O)NCC4CCOC4)nc4sccc34)cc2)n1 (stereo not shown)
Class name: no (0)
--
Molecule: Cn1ccc(-c2ccc(Cc3cc(C(=O)NC4CC5(COC5)C4)nc4c3ccn4C)cn2)n1
Class name: yes (1)
--
Molecule: O=C(NCC1CCOC1)c1cc(Cc2ccc(-n3cccn3)cc2)c2ccsc2n1 (stereo not shown)
Class name: no (0)

---

Examples of compounds with documented Emax follow.
biological target: human mAChR M1 (Homo sapiens); construct: host or cells: CHO-K1; experiment: mAChR M1 cell-based functional assay (calcium mobilization, Fluo-4, FDSS); conditions: CHO-K1 cells stably expressing hM1; EC20 acetylcholine response; read-out: Human M1 Emax
Value kind: Emax

Compound: Cn1ccc(-c2ccc(Cc3cc(C(=O)NC4CCOCC4(C)C)nc4sccc34)cn2)n1 (centres unmarked)
Value kind: Emax
Reading: 63.5%
//
Compound: Cn1ccc2c(Cc3ccc(-c4cscn4)cc3)cc(C(=O)N[C@@H]3CCCOC3)nc21
Value kind: Emax
Reading: 39.7%
//
Compound: O=C(N[C@H]1CCOC[C@@H]1O)c1cc(Cc2ccc(-n3cccn3)cc2)c2ccsc2n1
Value kind: Emax
Reading: 47.8%
//
Compound: CC1COCCC1NC(=O)c1cc(Cc2ccc(-n3cccn3)cc2)c2ccsc2n1 (centres unmarked)
Value kind: Emax
Reading: 60.7%
//
Compound: Cn1cc(-c2ccc(Cc3cc(C(=O)NC4CC5(COC5)C4)nc4sccc34)cn2)cn1
Value kind: Emax
Reading: 56.2%
//
Compound: CCn1ccc2c(Cc3ccc(-n4cccn4)cc3)cc(C(=O)NC3CC4(COC4)C3)nc21
Value kind: Emax
Reading: 72.3%
//
Compound: CC1CC(NC(=O)c2cc(Cc3ccc(-c4ccn(C)n4)nc3)c3ccsc3n2)CC(C)O1 (centres unmarked)
Value kind: Emax
Reading: 59.7%
//
Compound: O=C(NC1CC(F)C1)c1cc(Cc2ccc(-n3cccn3)cc2)c2ccsc2n1 (centres unmarked)
Value kind: Emax
Reading: 69.6%
//
Compound: Cn1ccc(-c2ccc(Cc3cc(C(=O)NC4CC5(COC5)C4)nc4sccc34)cc2)n1
Value kind: Emax
Reading: 69.9%
//
Compound: COCC(C)NC(=O)c1cc(Cc2ccc(-c3ccn(C)n3)cc2)c2ccsc2n1 (centres unmarked)
Value kind: Emax
Reading: 63.5%
//
Compound: O=C(NCC1CCOCC1)c1cc(Cc2ccc(-n3cccn3)cc2)c2ccsc2n1
Value kind: Emax
Reading: 68.8%
//
Compound: CC1CC(NC(=O)c2cc(Cc3ccc(-c4ccn(C)n4)nc3)c3ccn(C)c3n2)CC(C)O1 (centres unmarked)
Value kind: Emax
Reading: 82.4%
//
Compound: Cn1ncc2c(Cc3ccc(-n4cccn4)cc3)cc(C(=O)NC3CC4(COC4)C3)nc21
Value kind: Emax
Reading: 69.9%
//
Compound: C[C@@H]1CC(NC(=O)c2cc(Cc3ccc(-c4nccs4)cc3)c3ccn(C)c3n2)C[C@H](C)O1 (some centres unmarked)
Value kind: Emax
Reading: 58.6%
//
Compound: Cn1cc(-c2ccc(Cc3cc(C(=O)N[C@H]4CCOC[C@@H]4O)nc4c3ccn4C)cn2)cn1
Value kind: Emax
Reading: 74.3%
//
Compound: Cn1cc(-c2ccc(Cc3cc(C(=O)NC4COC4)nc4sccc34)cn2)cn1
Value kind: Emax
Reading: 53.5%
//
Compound: Cn1ncc2c(Cc3ccc(-c4cscn4)cc3)cc(C(=O)N[C@H]3CC[C@@H]3O)nc21
Value kind: Emax
Reading: 79.7%
//
Compound: Cc1nc(-c2ccc(Cc3cc(C(=O)NCC4CCN4)nc4sccc34)cc2)co1 (centres unmarked)
Value kind: Emax
Reading: 60.1%
//
Compound: Cn1ccc(-c2ccc(Cc3cc(C(=O)NC4CCOCC4)nc4sccc34)cn2)n1
Value kind: Emax
Reading: 37.9%
//
Compound: Cn1ccc(-c2ccc(Cc3cc(C(=O)NC4CC(F)(F)C4)nc4c3ccn4C)cn2)n1
Value kind: Emax
Reading: 66.1%
//
Compound: Cn1ccc(-c2ccc(Cc3cc(C(=O)N[C@H]4CCC[C@@H]4O)nc4c3ccn4C)cn2)n1
Value kind: Emax
Reading: 75.1%
//
Compound: Cc1nc(-c2ccc(Cc3cc(C(=O)NC4CCOC(C)(C)C4)nc4c3ccn4C)cc2)co1 (centres unmarked)
Value kind: Emax
Reading: 86.1%
//
Compound: Cn1ccc(-c2ccc(Cc3cc(C(=O)NC4CCOCC4)nc4sccc34)cc2)n1
Value kind: Emax
Reading: 60.4%
//
Compound: Cn1ccc(-c2ccc(Cc3cc(C(=O)NC4CC(F)C4)nc4sccc34)cn2)n1 (centres unmarked)
Value kind: Emax
Reading: 58.4%
//
Compound: Cn1ccc(-c2ccc(Cc3cc(C(=O)NCC4CCOC4)nc4c3ccn4C)cn2)n1 (centres unmarked)
Value kind: Emax
Reading: 76.4%
//
Compound: Cn1ccc2c(Cc3ccc(-c4nccs4)cc3)cc(C(=O)NC3CCOCC3(C)C)nc21 (centres unmarked)
Value kind: Emax
Reading: 61.2%
//
Compound: CCn1ccc2c(Cc3ccc(-n4cccn4)cc3)cc(C(=O)N[C@H]3CC[C@@H]3O)nc21
Value kind: Emax
Reading: 70.7%
//
Compound: Cn1ccc2c(Cc3ccc(-c4cscn4)cc3)cc(C(=O)N[C@@H]3CCOC3)nc21
Value kind: Emax
Reading: 54.8%
//
Compound: Cc1nc(-c2ccc(Cc3cc(C(=O)N[C@H]4CCOC[C@@H]4O)nc4c3ccn4C)cc2)co1
Value kind: Emax
Reading: 83.4%
//
Compound: Cc1nc(-c2ccc(Cc3cc(C(=O)N[C@@H]4CCOC4)nc4sccc34)cc2)co1
Value kind: Emax
Reading: 59.5%
//
Compound: COCC(C)NC(=O)c1cc(Cc2ccc(-c3coc(C)n3)cc2)c2ccsc2n1 (centres unmarked)
Value kind: Emax
Reading: 64.2%
//
Compound: Cc1nc(-c2ccc(Cc3cc(C(=O)NC4CC5(COC5)C4)nc4sccc34)cc2)co1
Value kind: Emax
Reading: 60.5%
